Parameter: T cell activation EC50. Scope: all listed entries.
Target: human CD3 on CD3-expressing cells (Jurkat, human T cells) (human, UniProt P07766 23-207; P04234 22-171)
Sequence (P07766 23-207 limits assumed, chain 1 of 2): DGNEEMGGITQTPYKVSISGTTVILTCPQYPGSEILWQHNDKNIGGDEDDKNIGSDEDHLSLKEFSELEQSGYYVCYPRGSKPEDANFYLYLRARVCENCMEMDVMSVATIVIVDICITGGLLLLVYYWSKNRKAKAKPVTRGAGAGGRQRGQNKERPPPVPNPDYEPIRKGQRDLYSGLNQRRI
Sequence (P04234 22-171 limits assumed, chain 2 of 2): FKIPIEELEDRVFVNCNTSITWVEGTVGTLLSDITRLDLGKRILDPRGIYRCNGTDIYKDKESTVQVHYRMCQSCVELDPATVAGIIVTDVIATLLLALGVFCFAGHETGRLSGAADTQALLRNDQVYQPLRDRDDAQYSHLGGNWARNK
Test: cell-based or functional assay

binder: BSPSMA/CD3-1700 (bispecific antibody, IgG4, V domains shown, modified (chimeric) IgG4 Fc domain; also called PSMA-VH-11810 x CD3-VH-G17) VH 1: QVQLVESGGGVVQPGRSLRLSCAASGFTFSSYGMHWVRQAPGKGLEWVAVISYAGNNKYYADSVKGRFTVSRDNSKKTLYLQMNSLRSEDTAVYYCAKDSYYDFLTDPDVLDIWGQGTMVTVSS VH 2: EVQLVESGGGLVQPGRSLRLSCAASGFTFDDYSMHWVRQAPGKGLEWVSGISWNSGSKGYADSVKGRFTISRDNAKNSLYLQMNSLRAEDTALYYCAKYGSGYGKFYYYGMDVWGQGTTVTVSS VL: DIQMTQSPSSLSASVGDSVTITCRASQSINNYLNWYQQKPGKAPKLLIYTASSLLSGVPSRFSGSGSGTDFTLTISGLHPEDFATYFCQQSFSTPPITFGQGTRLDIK
result unit: pM
T cell activation EC50: 3.89

binder: BSPSMA/CD3-1300 (bispecific antibody, IgG4, V domains shown, modified (chimeric) IgG4 Fc domain; also called PSMA-VH-11810 x CD3-VH-G13) VH 1: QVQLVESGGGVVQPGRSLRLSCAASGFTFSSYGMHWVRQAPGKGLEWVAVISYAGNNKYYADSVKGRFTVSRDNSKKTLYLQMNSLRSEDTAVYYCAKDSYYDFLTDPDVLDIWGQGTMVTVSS VH 2: EVQLVESGGGLVQPGRSLRLSCAASGFTFDDYSMHWVRQAPGKGLEWVSGISWNSGSIGYADSVKGRFTISRDNAKNSLYLQMNSLRAEDTALYYCAKYGSGYGKFYYYGLDVWGQGTTVTVSS VL: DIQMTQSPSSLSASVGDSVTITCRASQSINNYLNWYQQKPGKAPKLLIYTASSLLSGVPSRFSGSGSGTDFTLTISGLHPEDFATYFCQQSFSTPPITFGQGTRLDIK
result unit: pM
T cell activation EC50: 2.31
